Exercise: state measured conversion to 1,5-cz-[Ln(Lig)], Eu^III for each of the compounds provided.
PROCEDURE_TEXT: Formation of 1,5-cz-[Ln(Lig)] from Lig and Ln^III ions (metal dependent click-zip), MOPS/NaOH buffer pH 7.0, analytical HPLC (Charts 1, 2)
PROTOCOL_CONDITIONS: Eu^III; after 1 week at 80° C.; MOPS/NaOH buffer pH 7.0
Answers are plain numbers, in %.

Worked cases, answers included:
- SMILES_INPUT: "C#Cc1cccc(CN2CCN(CC(=O)O)CCN(Cc3cc(-c4ccc(C(=O)O)cc4)cc(CN=[N+]=[N-])n3)CCN(CC(=O)O)CC2)n1"
  conversion to 1,5-cz-[Ln(Lig)], Eu^III, %: 89
- SMILES_INPUT: "[N-]=[N+]=NCc1cc(-c2ccccc2)cc(CN2CCN(CC(=O)O)CCN(Cc3cccc(C#CCN)n3)CCN(CC(=O)O)CC2)n1"
  conversion to 1,5-cz-[Ln(Lig)], Eu^III, %: 14
- SMILES_INPUT: "C#CCN(CC#C)CCN1CCN(CC(=O)O)CCN(Cc2cc(-c3ccccc3)cc(CN=[N+]=[N-])n2)CCN(CC(=O)O)CC1"
  conversion to 1,5-cz-[Ln(Lig)], Eu^III, %: 25

Report conversion to 1,5-cz-[Ln(Lig)], Eu^III for every entry below.
1. [N-]=[N+]=NCc1cccc(CN2CCN(CC(=O)O)CCN(Cc3cccc(C#Cc4ccccc4)n3)CCN(CC(=O)O)CC2)n1
2. C#Cc1cccc(CN2CCN(CC(=O)O)CCN(Cc3cc(C(=O)OC)cc(CN=[N+]=[N-])n3)CCN(CC(=O)O)CC2)n1
3. C#Cc1cccc(CN2CCN(CP(=O)(O)c3ccccc3)CCN(Cc3cccc(CN=[N+]=[N-])n3)CCN(CP(=O)(O)c3ccccc3)CC2)n1

19
0
31
